experimental.details: Phase 2 study: population pharmacokinetics of plasma concentrations
Assay type: in vivo, human (infants)
particulars: human, plasma; Part 1, single oral dose 2.0 mg/kg; read-out: t½ mean (CV %) (converted)
measure: half-life (h)
Respond numerically; units are h and should not be typed.

Indicate its recorded half-life; the compound in question is Cc1ccc2nc(N3CCS(=O)(=O)c4ccccc4C3)nc(NCC3(N)COC3)c2c1
6.2

---

experimental.details: Phase 2 study: population pharmacokinetics of plasma concentrations
Type: in vivo, human (infants)
particulars: human, plasma; Part 1, single oral dose 0.5 mg/kg; read-out: AUC0–∞ mean (CV %)
measure: AUC(0-inf) (ng·h/mL)
Give just the numeric value; ng·h/mL need not be written.

Respond only with AUC(0-inf) recorded for Cc1ccc2nc(N3CCS(=O)(=O)c4ccccc4C3)nc(NCC3(N)COC3)c2c1
2060

---

experimental.details: Phase 2 study: population pharmacokinetics of plasma concentrations
Format: in vivo, human (infants)
particulars: human, plasma, po, 4 mg/kg, Part 1, single oral dose 4.0 mg/kg; read-out: tmax median (range)
measure: Tmax

Provide Tmax value for the following compound: Cc1ccc2nc(N3CCS(=O)(=O)c4ccccc4C3)nc(NCC3(N)COC3)c2c1 [AK0529, ziresovir]
~2 h

---

experimental.details: Phase 2 study: population pharmacokinetics of plasma concentrations
Assay type: in vivo, human (infants)
particulars: human, plasma; Part 1, single oral dose 4.0 mg/kg; read-out: t½ mean (CV %) (converted)
measure: half-life (h)
Please give a number only; it is taken to be in h.

Give half-life for Cc1ccc2nc(N3CCS(=O)(=O)c4ccccc4C3)nc(NCC3(N)COC3)c2c1
6

---

experimental.details: Phase 2 study: population pharmacokinetics of plasma concentrations
Type: in vivo, human (infants)
particulars: human, plasma; Part 1, single oral dose 2.0 mg/kg, N 4; read-out: Cmax mean (CV %)
measure: Cmax (ng/mL)
// note: answer is a bare numeric in ng/mL

Using the record for Cc1ccc2nc(N3CCS(=O)(=O)c4ccccc4C3)nc(NCC3(N)COC3)c2c1 , state its measured Cmax.
375

---

experimental.details: Phase 2 study: population pharmacokinetics of plasma concentrations
Format: in vivo, human (infants)
particulars: human, plasma; Part 1, single oral dose 0.5 mg/kg, N 4, all younger than 6 months; read-out: Cmax mean (CV %)
Description: Individual plasma concentrations of the active drug were measured, and PK were determined using nonlinear mixed‐effect models. […] Clinical safety and tolerability were assessed on the safety population, comprising all subjects who received ≥1 dose of study drug. Clinical variables were evaluated in the full analysis population, which included all subjects who received a dose of study drug and for whom ≥1 post‐treatment assessment was available. […]
measure: Cmax

Please look at this molecule and report its Cmax: Cc1ccc2nc(N3CCS(=O)(=O)c4ccccc4C3)nc(NCC3(N)COC3)c2c1
158 ng/mL

---

experimental.details: Phase 2 study: population pharmacokinetics of plasma concentrations
Format: in vivo, human (infants)
particulars: human, plasma, oral; Part 1, single doses up to 4 mg/kg; read-out: AUC0–24
measure: AUC(0-t)

For the compound Cc1ccc2nc(N3CCS(=O)(=O)c4ccccc4C3)nc(NCC3(N)COC3)c2c1 , give its reported AUC(0-t).
≤ 7780 ng·h/mL

---

experimental.details: Phase 2 study: population pharmacokinetics of plasma concentrations
Type: in vivo, human (infants)
particulars: human, plasma; Part 1, single oral dose 4.0 mg/kg; read-out: AUC0–∞ mean (CV %)
measure: AUC(0-inf) (ng·h/mL)
Return type: number; implicit unit ng·h/mL.

Please give measured AUC(0-inf) of the following entry: Cc1ccc2nc(N3CCS(=O)(=O)c4ccccc4C3)nc(NCC3(N)COC3)c2c1
8280
